System: S. mansoni adult worms
test-summary: Motility assay on adult parasites (pixel displacement, relative to DMSO control)
Assay type: cell-based, Schistosoma mansoni
condition-notes: secondary screen, 10 μM, D1, Male adult worms
This listing pairs compounds with measured Fractional motility.
Field format: numeric only.

{"compound": "CN(C)CCCN1c2ccccc2Sc2ccc(Cl)cc21", "Fractional motility": 2.38}
{"compound": "COc1ccc2cc1Oc1ccc(cc1)C[C@H]1c3cc(c(OC)cc3CCN1C)Oc1c(OC)c(OC)cc3c1[C@H](C2)N(C)CC3", "Fractional motility": -0.37}

*Q* Quick one: Fractional motility for `CCOC(=O)C1=C(C)NC(C)=C(C(=O)OCC)C1c1ccccc1/C=C/C(=O)OC(C)(C)C` ?
*A* -0.50

*Q* Quick one: Fractional motility for `C[C@]12CC[C@@H]3c4ccc(O)cc4CC[C@H]3[C@@H]1CC[C@@H]2O` ?
*A* 0.83

*Q* Quick one: Fractional motility for CNCCC(Oc1ccc(C(F)(F)F)cc1)c1ccccc1 (stereo not shown) ?
*A* 2.26

*Q* Quick one: Fractional motility for `C#CC[C@H](c1nc2cc(Cl)ccc2c(=O)n1Nc1ccccc1)N(CCCN)C(=O)c1cccc(Cl)c1F` ?
*A* 0.41

====

Test system: S. mansoni adult worms
test-summary: Motility assay on adult parasites (pixel displacement, relative to DMSO control)
Type: cell-based, Schistosoma mansoni
condition-notes: secondary screen, 10 μM, D5, Male adult worms
quantity-measured: Fractional motility
Field format: numeric only.

{"compound": "COc1ccc2cc1Oc1ccc(cc1)C[C@H]1c3cc(c(OC)cc3CCN1C)Oc1c(OC)c(OC)cc3c1[C@H](C2)N(C)CC3", "assay-result": -0.61}
{"compound": "CCn1c2ccccc2c2cc(Nc3ccnc(NCCCN4CCOCC4)n3)ccc21", "assay-result": -0.29}
{"compound": "N#CSc1cc(SC#N)c(N)nc1N", "assay-result": -0.93}
{"compound": "Cc1ccc(C(=O)N(CCCN)[C@@H](c2nc3cc(Cl)ccc3c(=O)n2Cc2ccccc2)C(C)C)cc1", "assay-result": -0.33}
{"compound": "O=[N+]([O-])C=Cc1ccc2c(c1)OCO2", "assay-result": -0.55}

*Q* What is its Fractional motility for S. mansoni adult worms? Entry: `NCC(=O)Nc1ccc(-n2nc(C(F)(F)F)cc2-c2ccc3c(ccc4ccccc43)c2)cc1`
*A* 0.62

*Q* What is its Fractional motility for S. mansoni adult worms? Entry: COCCCN1CCC(NC(=O)c2cc(Cl)c(N)c3c2OCC3)CC1 [Prucalopride]
*A* 0.34

*Q* What is its Fractional motility for S. mansoni adult worms? Entry: `Cc1ccc(S(=O)(=O)c2ccc([N+](=O)[O-])o2)cc1`
*A* -0.78

====

Test system: S. mansoni schistosomulae
test-summary: Motility assay on schistosomulae (pixel displacement, relative to DMSO control)
Type: cell-based, Schistosoma mansoni
condition-notes: Schistosoma mansoni, 120 h; schistosomulae, secondary screen, 24h exposure, read at D5, 1 µM; read-out: Fractional motility
So basically, if activity at 1 µM comes in under 30% it's true, and if it's 30% or more it's false.

{"compound": "Cc1cccc(C(C)c2cnc[nH]2)c1C (centres unmarked)", "class-name": "true"}
{"compound": "C#C[C@]1(O)C=C[C@H]2[C@@H]3CCC4=CC(=O)CC[C@@H]4[C@H]3CC[C@@]21CC", "class-name": "true"}
{"compound": "C=CC(=O)Nc1cc(Nc2nccc(-c3cn(C)c4ccccc34)n2)c(OC)cc1N(C)CCN(C)C", "class-name": "false"}
{"compound": "C[C@]12CC[C@@H]3c4ccc(O)cc4CC[C@H]3[C@@H]1CC[C@@H]2O", "class-name": "true"}
{"compound": "COCCCC/C(=N\\OCCN)c1ccc(C(F)(F)F)cc1", "class-name": "false"}

*Q* Lab log: compare recorded activity at 1 µM with 30%; is it strictly lower for `O=[N+]([O-])C=Cc1ccc2c(c1)OCO2` ?
*A* false

*Q* Lab log: compare recorded activity at 1 µM with 30%; is it strictly lower for COCCCN1CCC(NC(=O)c2cc(Cl)c(N)c3c2OCC3)CC1 [Prucalopride] ?
*A* true

*Q* Lab log: compare recorded activity at 1 µM with 30%; is it strictly lower for `O=C1CCc2ccc(OCCCCN3CCN(c4cccc(Cl)c4Cl)CC3)cc2N1` ?
*A* true

====

Test system: S. mansoni adult worms
test-summary: Motility assay on adult parasites (pixel displacement, relative to DMSO control)
Format: cell-based, Schistosoma mansoni
condition-notes: secondary screen, 10 μM, D5, Male adult worms
So basically, if Fractional motility comes in under -0.3 it's yes (1), and if it's -0.3 or more it's no (0).

{"compound": "CC(C)(C)c1cc(NC(=O)Nc2ccc(-c3cn4c(n3)sc3cc(OCCN5CCOCC5)ccc34)cc2)no1 [Quizartinib]", "class-name": "no (0)"}
{"compound": "Cc1ccc(C(=O)N(CCCN)[C@@H](c2oc3cc(Cl)ccc3c(=O)c2Cc2ccccc2)C(C)C)cc1 [SB743921]", "class-name": "no (0)"}
{"compound": "CCOC(=O)C1=C(C)NC(C)=C(C(=O)OCC)C1c1ccccc1/C=C/C(=O)OC(C)(C)C [Lacidipine]", "class-name": "yes (1)"}
{"compound": "CCOC(=O)CCNc1cc(N2CCc3ccccc3CC2)nc(-c2ccccn2)n1 [GSK J4]", "class-name": "yes (1)"}
{"compound": "CCCCCCCCc1ccc(CCC(N)(CO)CO)cc1 [Fingolimod]", "class-name": "no (0)"}
{"compound": "Fc1ccc([C@@H]2CCNC[C@H]2COc2ccc3c(c2)OCO3)cc1 [Paroxetine]", "class-name": "yes (1)"}
{"compound": "C[C@@H](NCCCc1cccc(C(F)(F)F)c1)c1cccc2ccccc12 [AMG-073]", "class-name": "no (0)"}
{"compound": "CC(=O)c1cc([N+](=O)[O-])c(Sc2ccc(F)cc2F)s1 [P22077]", "class-name": "yes (1)"}

*Q* Lab log: compare recorded Fractional motility with -0.3; is it strictly lower for Cc1nc(C#Cc2ccnc(Cl)c2)c(C)n1-c1ccc(OC(F)(F)F)cc1 [CTEP] ?
*A* yes (1)

*Q* Lab log: compare recorded Fractional motility with -0.3; is it strictly lower for C=CC(=O)Nc1cc(Nc2nccc(-c3cn(C)c4ccccc34)n2)c(OC)cc1N(C)CCN(C)C [AZD9291] ?
*A* no (0)

*Q* Lab log: compare recorded Fractional motility with -0.3; is it strictly lower for c1ccc(CNc2nc(NCc3ccccc3)c3ccccc3n2)cc1 [DBeQ] ?
*A* yes (1)

*Q* Lab log: compare recorded Fractional motility with -0.3; is it strictly lower for COC(=O)C1=C(C)NC(C)=C(C(=O)OCCN2CCN(C(c3ccccc3)c3ccccc3)CC2)C1c1cccc([N+](=O)[O-])c1 (stereo not shown) [Manidipine] ?
*A* yes (1)

*Q* Lab log: compare recorded Fractional motility with -0.3; is it strictly lower for Cc1cnc(-c2cc(N3CCN(C(=O)CCS(C)(=O)=O)CC3)ncc2Cl)c(C)c1 [PF-5274857] ?
*A* yes (1)

====

System: S. mansoni schistosomulae
test-summary: Phenotypic primary screen assay on schistosomulae (phenotype; viability by methylene blue dye exclusion)
Format: cell-based, Schistosoma mansoni
condition-notes: three-day-old schistosomulae, 10 μM, 24 h; calculated 5 days post compound exposure
This listing pairs compounds with measured Viability (%).

Example results:
{"compound": "O=C(NC(NC(=S)Nc1ccc(F)c([N+](=O)[O-])c1)C(Cl)(Cl)Cl)C(c1ccccc1)c1ccccc1 (centres unmarked) [CGK 733]", "Viability (%)": "62,5%"}
{"compound": "c1ccc(CNc2nc(NCc3ccccc3)c3ccccc3n2)cc1 [DBeQ]", "Viability (%)": "15,5%"}
{"compound": "O=[N+]([O-])c1ccc2c(c1)S(=O)(=O)C=C2 [Stattic]", "Viability (%)": "0%"}

*Q* What is its Viability (%) for S. mansoni schistosomulae? Entry: N#CSc1cc(SC#N)c(N)nc1N [PR-619]
*A* 54,5%

*Q* What is its Viability (%) for S. mansoni schistosomulae? Entry: CCCCCCCCCCCCCCCCn1cc[n+](Cc2ccccc2)c1C.[I-] [NH125]
*A* 18%

*Q* What is its Viability (%) for S. mansoni schistosomulae? Entry: Cc1cnc(-c2cc(N3CCN(C(=O)CCS(C)(=O)=O)CC3)ncc2Cl)c(C)c1 [PF-5274857]
*A* 96.5%

*Q* What is its Viability (%) for S. mansoni schistosomulae? Entry: CCc1ccc(OCc2ccccc2C(=O)Nc2ccc3nc(C)cc(N)c3c2)cc1 [JTC-801]
*A* 0%

*Q* What is its Viability (%) for S. mansoni schistosomulae? Entry: C/C(=N\NC(=S)N1CCC1)c1ccccn1 [NSC319726]
*A* 68%
